# Tested on: EKVX
# Procedure Details: NCI tumour cell line growth inhibition, 48 h
Activity calls are given as the source filed them. No stated cut-off is given here; in the data, active = GI50 up to about 1.1 µM and inactive = higher.
Labels: active, inactive

>  <Compound>
NC(Cc1ccnnc1)C(=O)O (stereo not given)

>  <Assigned Category>
inactive

$$$$
>  <Compound>
CC1=NC(=O)C(C)(c2ccccc2)N1CCc1ccccc1 (stereo not given)

>  <Assigned Category>
inactive

$$$$
>  <Compound>
CCOC(=O)C(NC(=O)N(C1=NCC(C)S1)C1CCCCC1)(OC)C(F)(F)F (stereo not given)

>  <Assigned Category>
inactive

$$$$
>  <Compound>
CCOC(=O)N1CCC(N[C@@H]2c3cc4c(cc3[C@@H](c3cc(OC)c(O)c(OC)c3)[C@H]3C(=O)OC[C@@H]32)OCO4)CC1

>  <Assigned Category>
inactive

$$$$
>  <Compound>
O=c1c2ccccc2nc(-c2ccc(Br)cc2)n1NC1OC(CO)C(O)C(O)C1O (stereo not given)

>  <Assigned Category>
inactive

$$$$
>  <Compound>
CC[C@]12C=CCN3CCC4(c5cc([C@@]6(C(=O)OC)CC7CN(CCc8c6[nH]c6ccccc86)CC6CCCCC67)c(OC)cc5N(C)C4[C@](O)(C(=O)OC)C1OC(C)=O)[C@@H]32 (stereo not given in full)

>  <Assigned Category>
active

$$$$
>  <Compound>
Cc1cccc(C)c1NC(=S)NC=C1C(=O)c2ccccc2C1=O

>  <Assigned Category>
inactive

$$$$
>  <Compound>
O=C1N(C2CCCCC2)CC12CCCCC2

>  <Assigned Category>
inactive

$$$$
>  <Compound>
COc1ccc(/N=C\c2cc(OC)c(OC)c(OC)c2)cc1

>  <Assigned Category>
inactive

$$$$
>  <Compound>
O=C(O)C1(Cc2ccc3c(c2)CCC3)Cc2cc3c(cc2C1)CCC3

>  <Assigned Category>
inactive

$$$$
